# system_name: T1, extracellular domain of human PRLR (monomeric, soluble) (human, UniProt P16471 25-234)
# T1 construct: also called ECD-PRLR; ECD of PRLR
# T1 sequence: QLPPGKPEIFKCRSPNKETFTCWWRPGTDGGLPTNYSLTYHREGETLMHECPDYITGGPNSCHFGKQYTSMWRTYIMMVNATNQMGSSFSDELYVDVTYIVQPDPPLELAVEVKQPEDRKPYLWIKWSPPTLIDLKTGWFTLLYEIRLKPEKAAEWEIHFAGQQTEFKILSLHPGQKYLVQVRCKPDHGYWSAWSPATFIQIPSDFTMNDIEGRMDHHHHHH
# assay_comment: ELISA: plate coated with human PRLR extracellular domain, Fab-containing E. coli supernatant, anti-flag-HRP, Amplex Red
assay_readout: binding result

Output measured binding result for this item: 005-C04-46-1 (Fab, V domains shown, Maturated 005-C04 variant; Fab in E. coli supernatant, flag-detected) VH: EVQLLESGGGLVQPGGSLRLSCAASGFTFSSYWNHWVRQAPGKGLEWVSDMSRLSPYTNYADSVKGRFTISRDNSKNTLYLQMNSLRAEDTAVYYCARGLDARRMDYWGQGTLVTVTS VL: QSVLTQPPSASGTPGQRVTISCTGSSSNIGYGYVVHWYQQLPGTAPKLLIYRNNVRQSGVPDRFSGSKSGTSASLAISGLRSEDEADYYCAAWDDSLNGWLFGGGTKLTVLG
binds

Output measured binding result for this item: 005-C04-L2-1-21-7 (Fab, V domains shown, Maturated 005-C04 variant; Fab in E. coli supernatant, flag-detected) VH: EVQLLESGGGLVQPGGSLRLSCAASGFTFSSYWWHWVRQAPGKGLEWVSDMSRLSSYTNYADSVKGRFTISRDNSKNTLYLQMNSLRAEDTAVYYCARGLDARRMDYWGQGTLVTVTS VL: QSVLTQPPSASGTPGQRVTISCTGSSSNIGAGYVVHWYQQLPGTAPKLLIYRNNQRQSGVPDRFSGSKSGTSASLAISGLRSEDEADYYCAAWDDSLNGWLFGGGTKLTVLG
binds
